Would you mind telling me the reported Remaining activity [%] of each entry?
# tested_system: VLP2 (virus-like particles, capsid protein particles of AAV serotype 2) (AAV serotype 2 (AAV2)) (UniProt P03135)
# Sequence (P03135 whole entry): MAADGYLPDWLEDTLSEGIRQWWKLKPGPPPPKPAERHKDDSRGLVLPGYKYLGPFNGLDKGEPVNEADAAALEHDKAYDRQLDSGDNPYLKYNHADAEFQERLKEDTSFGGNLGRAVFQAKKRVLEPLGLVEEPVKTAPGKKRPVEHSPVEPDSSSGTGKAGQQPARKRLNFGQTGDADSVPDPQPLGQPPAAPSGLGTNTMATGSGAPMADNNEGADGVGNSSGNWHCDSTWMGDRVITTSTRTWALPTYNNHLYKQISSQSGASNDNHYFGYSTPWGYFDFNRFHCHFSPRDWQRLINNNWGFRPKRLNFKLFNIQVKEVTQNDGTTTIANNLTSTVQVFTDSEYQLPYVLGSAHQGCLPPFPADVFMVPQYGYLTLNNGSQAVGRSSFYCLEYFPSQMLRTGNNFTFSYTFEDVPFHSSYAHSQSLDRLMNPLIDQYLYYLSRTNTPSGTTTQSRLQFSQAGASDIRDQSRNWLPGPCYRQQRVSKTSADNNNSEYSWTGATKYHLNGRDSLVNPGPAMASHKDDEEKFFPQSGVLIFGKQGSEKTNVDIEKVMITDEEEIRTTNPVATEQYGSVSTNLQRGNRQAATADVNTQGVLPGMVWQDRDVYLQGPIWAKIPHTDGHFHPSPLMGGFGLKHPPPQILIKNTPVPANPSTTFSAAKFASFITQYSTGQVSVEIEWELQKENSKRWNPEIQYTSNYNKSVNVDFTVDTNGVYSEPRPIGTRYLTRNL
# test: ELISA on immobilised VLP2 (purified protein, 5 µg/mL); start of alkali treatment, the reference of the ratio
One number for each entry, in %.

Past entries and their recorded results:
[
  {
    "binder": "AVR29c (AVR25c with I366F, V394A, K455R, K497E) (receptor) MGSAGESDQITLPKHEAQLKVYVLLVPPKGEASTYDWQLITHPRDYSGEMEGEHSQFLKLSNLTPGLYEYRAVVEGQNAHSEGYANVTVEPGPRKNRPPIAIVSPQFQEISLPTTSAVIDGSQSTDDDKIVQYHWEELKGPLREERISEDTPILKLSNLVPGNYTFRLTVVDTDGATDSTTADLTVNEAVDHHHHHH",
    "endpoint": "Remaining activity [%]",
    "assay_value": 100
  },
  {
    "binder": "AVR29d (AVR25c with I366F, V394A, K455R, V499I) (receptor) MGSAGESDQITLPKHEAQLKVYVLLVPPKGEASTYDWQLITHPRDYSGEMEGEHSQFLKLSNLTPGLYEYRAVVEGQNAHSEGYANVTVEPGPRKNRPPIAIVSPQFQEISLPTTSAVIDGSQSTDDDKIVQYHWEELKGPLREERISEDTPILKLSNLVPGNYTFRLTVVDTDGATDSTTADLTVNKAIDHHHHHH",
    "endpoint": "Remaining activity [%]",
    "assay_value": 100
  },
  {
    "binder": "AVR27b (AVR25c with I366F, T474R) (receptor) MGSAGESDQITLPKHEAQLKVYVLLVPPKGEASTYDWQLITHPRDYSGEMEGEHSQFLKLSNLTPGLYEYRAVVEGQNAHSEGYVNVTVEPGPRKNRPPIAIVSPQFQEISLPTTSAVIDGSQSTDDDKIVQYHWEELKGPLREEKISEDTPILKLSNLVPGNYRFRLTVVDTDGATDSTTADLTVNKAVDHHHHHH",
    "endpoint": "Remaining activity [%]",
    "assay_value": 100
  },
  {
    "binder": "AVR27c (AVR25c with V394A, T474R) (receptor) MGSAGESDQITLPKHEAQLKVYVLLVPPKGEASTYDWQLITHPRDYSGEMEGEHSQILKLSNLTPGLYEYRAVVEGQNAHSEGYANVTVEPGPRKNRPPIAIVSPQFQEISLPTTSAVIDGSQSTDDDKIVQYHWEELKGPLREEKISEDTPILKLSNLVPGNYRFRLTVVDTDGATDSTTADLTVNKAVDHHHHHH",
    "endpoint": "Remaining activity [%]",
    "assay_value": 100
  },
  {
    "binder": "AVR28 (AVR25c with I366F, V394A, K455R) (receptor) MGSAGESDQITLPKHEAQLKVYVLLVPPKGEASTYDWQLITHPRDYSGEMEGEHSQFLKLSNLTPGLYEYRAVVEGQNAHSEGYANVTVEPGPRKNRPPIAIVSPQFQEISLPTTSAVIDGSQSTDDDKIVQYHWEELKGPLREERISEDTPILKLSNLVPGNYTFRLTVVDTDGATDSTTADLTVNKAVDHHHHHH",
    "endpoint": "Remaining activity [%]",
    "assay_value": 100
  }
]

# return Remaining activity [%] for each item in the list
1. AVR29a (AVR25c with I366F, V394A, K455R, T474R) (receptor) MGSAGESDQITLPKHEAQLKVYVLLVPPKGEASTYDWQLITHPRDYSGEMEGEHSQFLKLSNLTPGLYEYRAVVEGQNAHSEGYANVTVEPGPRKNRPPIAIVSPQFQEISLPTTSAVIDGSQSTDDDKIVQYHWEELKGPLREERISEDTPILKLSNLVPGNYRFRLTVVDTDGATDSTTADLTVNKAVDHHHHHH
2. AVR25c (AVR25a with K467N) (receptor) MGSAGESDQITLPKHEAQLKVYVLLVPPKGEASTYDWQLITHPRDYSGEMEGEHSQILKLSNLTPGLYEYRAVVEGQNAHSEGYVNVTVEPGPRKNRPPIAIVSPQFQEISLPTTSAVIDGSQSTDDDKIVQYHWEELKGPLREEKISEDTPILKLSNLVPGNYTFRLTVVDTDGATDSTTADLTVNKAVDHHHHHH
3. AVR27d (AVR25c with K455R, T474R) (receptor) MGSAGESDQITLPKHEAQLKVYVLLVPPKGEASTYDWQLITHPRDYSGEMEGEHSQILKLSNLTPGLYEYRAVVEGQNAHSEGYVNVTVEPGPRKNRPPIAIVSPQFQEISLPTTSAVIDGSQSTDDDKIVQYHWEELKGPLREERISEDTPILKLSNLVPGNYRFRLTVVDTDGATDSTTADLTVNKAVDHHHHHH

100
100
100
